System: U2OS
assay-notes: Multiplex assay against U2OS
Type: toxicity, cell-based
protocol-conditions: human, 24 h, 10 µM, compound concentration 10 uM, replicate 2
Measured Population Normal (%), listed per entry for reference.
Express the result in % but write the number alone.

In the examples that follow, each entry is paired with its recorded Population Normal (%).
• C=CC(=O)Nc1cc(-n2c(=O)ccc3cnc4ccc(-c5ccc(NS(C)(=O)=O)cc5)cc4c32)ccc1C = 94
• CC(C)c1cc(Nc2nc(N3CCC[C@H](N)C3)ncc2C(N)=O)cc(C(C)C)n1 = 82
• C[C@@H](Oc1cc(-n2cnc3ccc(CN4CCN(C)CC4)cc32)sc1C(N)=O)c1ccccc1C(F)(F)F = 93
• Cc1c(Nc2ccc(S(=O)(=O)N3CCN(C)CC3)cc2F)nc2ccc(Nc3cnn(C4CC4)c3)cn2c1=O = 88
• N#Cc1cccc(C(=O)Nc2cc(-c3ccccc3)nn2-c2ccccc2)c1 = 93

# input molecule: CN(c1cc(C(F)(F)F)nc(OCCC(=O)O)n1)c1cccc2c1CCC2 ; wanted: its Population Normal (%)
86

Note, next up: CC[C@H](Nc1ncnc2[nH]cnc12)c1nc2cccc(F)c2c(=O)n1-c1ccccc1
91

Note, next up: CC(Cc1ccc(O)c(O)c1)C(C)Cc1ccc(O)c(O)c1 (stereo not drawn) [NORDIHYDROGUAIARETIC ACID]
94

Note, next up: Cc1ccc(S(=O)(=O)NC2c3ccccc3Oc3ccccc32)cc1
95

Note, next up: CC(C)[C@H](CO)Nc1nc(Nc2cccc(Cl)c2)c2ncn(C(C)C)c2n1
91

Note, next up: NC(=O)c1ccc2nc(-c3ccc(C4(N)CCC4)cc3)c(-c3ccccc3)n2n1
94

----------
Tested on: HEK-293T
assay-notes: Multiplex assay against HEK293T
Format: toxicity, cell-based
protocol-conditions: human, 48 h, 1 µM, compound concentration 1 uM, replicate 1
measured-property: Population Membrane Permeable-Phenotype (%)
Express the result in % but write the number alone.

# input molecule: CCCCN(CC)c1nc(C)nc2c1c(C)cn2-c1c(C)cc(C)cc1C.Cl ; wanted: its Population Membrane Permeable-Phenotype (%)
2

Note, next up: C=CC(=O)Nc1cc(-n2c(=O)ccc3cnc4ccc(-c5ccc(NS(C)(=O)=O)cc5)cc4c32)ccc1C
3

Note, next up: N#CCNC(=O)c1ccc(-c2ccnc(Nc3ccc(N4CCOCC4)cc3)n2)cc1
3

Note, next up: CC(Cc1ccc(O)c(O)c1)C(C)Cc1ccc(O)c(O)c1 (stereo not given) [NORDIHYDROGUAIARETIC ACID]
5

Note, next up: Cc1c(P(=S)(c2ccccc2)c2ccccc2)n2ccccc2[n+]1C/C=C/c1ccccc1.[Br-]
0

----------
System: U2OS
assay-notes: Incucyte cell viability with U2OS; note: filed as whole numbers so only -1 and 0 and 1 occur
Type: toxicity, cell-based
protocol-conditions: human, 0 h, 10 µM, compound concentration 10 uM, replicate number 1, timepoint 0 hours
measured-property: Growth Rate
Reply: number alone, nothing else.

# input molecule: CNC(=O)Nc1ccc2c(c1)CC[C@@]21OC(=O)N(CC(=O)N(Cc2ccc(F)cc2)[C@@H](C)C(F)(F)F)C1=O [A-485] ; wanted: its Growth Rate
1

Note, next up: CC(C)C[C@H](NC(=O)N1CCCCCC1)C(=O)N[C@H](Cc1cn(C)c2ccccc12)C(=O)N[C@H](Cc1ccccn1)C(=O)O
0
